Cited source for all entries: ChEMBL document CHEMBL4725381

Answer each item with its documented IC50.
# TEST SYSTEM: Botulinum neurotoxin type A (Clostridium botulinum)
# Sequence (P0DPI0 2-448 limits assumed): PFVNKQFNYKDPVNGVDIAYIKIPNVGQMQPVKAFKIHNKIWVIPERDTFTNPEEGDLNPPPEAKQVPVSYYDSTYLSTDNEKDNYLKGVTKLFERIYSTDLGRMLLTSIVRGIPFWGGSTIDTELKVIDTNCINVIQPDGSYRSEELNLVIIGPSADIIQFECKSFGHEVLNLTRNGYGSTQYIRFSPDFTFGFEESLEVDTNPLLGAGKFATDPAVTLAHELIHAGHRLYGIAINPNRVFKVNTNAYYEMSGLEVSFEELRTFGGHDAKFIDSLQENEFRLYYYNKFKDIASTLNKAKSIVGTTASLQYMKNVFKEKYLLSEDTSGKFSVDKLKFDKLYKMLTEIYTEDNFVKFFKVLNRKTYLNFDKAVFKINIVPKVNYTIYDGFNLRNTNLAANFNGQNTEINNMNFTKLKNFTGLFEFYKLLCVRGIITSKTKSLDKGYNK
# ASSAY EXPLANATION: Inhibition of Clostridium botulinum BoNT/A light chain using SNAPtide as substrate preincubated with enzyme for 2 mins followed by substrate addition and measured for 0-5 mins by FRET assay
Give bare numbers, in µM.

Need IC50 for each of these compounds.
1. CC[C@@H](C)[C@@H](NS(=O)(=O)c1cccc(-c2cc3ccccc3o2)c1)C(=O)NO
2. CC[C@@H](C)[C@@H](NS(=O)(=O)c1cccc(-c2ccccc2Cl)c1)C(=O)NO

### Response
1: 14; 2: 0.587
